# target-or-system: MerTK (Homo sapiens)
# Construct: endogenous in cells; host or cells: Jurkat cells
# Sequence (Q12866 21-999): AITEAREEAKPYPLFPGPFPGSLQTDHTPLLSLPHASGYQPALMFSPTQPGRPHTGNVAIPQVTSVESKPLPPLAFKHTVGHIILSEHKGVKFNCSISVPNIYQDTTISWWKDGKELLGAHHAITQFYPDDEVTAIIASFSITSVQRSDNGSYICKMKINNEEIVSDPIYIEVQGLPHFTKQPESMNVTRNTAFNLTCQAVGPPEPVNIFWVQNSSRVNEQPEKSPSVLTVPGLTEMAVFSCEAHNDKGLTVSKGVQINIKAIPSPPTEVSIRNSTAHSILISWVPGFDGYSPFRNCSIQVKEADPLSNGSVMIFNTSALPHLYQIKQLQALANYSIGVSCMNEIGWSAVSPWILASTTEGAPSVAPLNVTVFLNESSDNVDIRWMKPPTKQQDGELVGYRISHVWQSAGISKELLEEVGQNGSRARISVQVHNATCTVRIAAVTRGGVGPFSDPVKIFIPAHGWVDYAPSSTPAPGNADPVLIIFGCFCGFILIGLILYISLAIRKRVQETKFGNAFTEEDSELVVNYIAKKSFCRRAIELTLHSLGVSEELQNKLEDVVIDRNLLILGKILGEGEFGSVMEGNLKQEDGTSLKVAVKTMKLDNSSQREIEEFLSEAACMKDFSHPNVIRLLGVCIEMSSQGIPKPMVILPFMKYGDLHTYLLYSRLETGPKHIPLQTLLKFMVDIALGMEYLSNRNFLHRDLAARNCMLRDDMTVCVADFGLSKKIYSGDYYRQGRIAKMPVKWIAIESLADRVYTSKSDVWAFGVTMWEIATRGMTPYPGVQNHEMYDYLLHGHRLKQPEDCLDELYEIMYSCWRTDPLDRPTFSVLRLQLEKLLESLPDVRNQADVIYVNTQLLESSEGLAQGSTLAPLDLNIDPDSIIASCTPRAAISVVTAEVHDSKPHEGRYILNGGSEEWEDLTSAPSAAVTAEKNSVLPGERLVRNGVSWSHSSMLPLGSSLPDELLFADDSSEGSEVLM
# protocol-text: MerTk degradation in Jurkat cells (Western blot)
# Format: cell-based
# condition-description: Jurkat, 4 h, 0.001-1 μM, 4 hour-incubation at 37° C., read-out: Jurkat Max % MerTK Degradation
# Procedure: Compounds were reconstituted in DMSO to make 10 mM stock solutions. […] Cells were seeded into 6-well plates with about 5×10^6 cells per well. 2 μL of diluted compounds were added to cells to the final concentration of 0.001-1 μM. […] The protein concentration of cell lysates was quantified with Pierce™ BCA Protein Assay Kit. […] After incubation at 37° C. for 30 min, the absorbance of samples at 562 nm were measured with EnVision Plate Reader. […]
Structures can show the parent of a compound that is named as a salt.
metric: Dmax

Below, 4 molecules whose answers are already recorded.
CCCCNc1ncc(-c2ccc(CN3CCN(C(=O)COCCOCCOCCOCCNc4cccc5c4C(=O)N(C4CCC(=O)NC4=O)C5=O)CC3)cn2)c(N[C@H]2CC[C@H](O)CC2)n1 (some centres unmarked) [I-22] = > 50%
Cc1ncsc1-c1ccc(CNC(=O)[C@@H]2C[C@@H](O)CN2C(=O)[C@@H](NC(=O)COCCOCCOCCOCCn2ccc3c(Nc4nc(N[C@@H]5CCCC[C@@H]5N)cc5nc[nH]c(=O)c45)cccc32)C(C)(C)C)cc1 [I-230] = < 20%
CCCCNc1ncc2c(-c3ccc(CN4CCN(CCOCCOCCOCCOCCCc5ccc6c(c5)n(C)c(=O)n6[C@H]5CCC(=O)NC5=O)CC4)nn3)cn([C@H]3CC[C@H](O)CC3)c2n1 [I-76] = > 50%
CCCCNc1ncc2c(-c3ccc(CN4CCN(CCCOCCCc5ccc6c(c5)n(C)c(=O)n6[C@H]5CCC(=O)NC5=O)CC4)cc3)cn(C3CCCCC3)c2n1 [I-74] = > 50%

What value of Dmax has been reported for the following molecule? Cn1c(=O)n([C@H]2CCC(=O)NC2=O)c2ccc(CCCCN3CC(N4CCN(Cc5ccc(-c6cn([C@H]7CC[C@H](O)CC7)c7nc(NCCC(F)(F)F)ncc67)cc5)CC4)C3)cc21 [I-119, bis(formic acid)]
> 50%

What value of Dmax has been reported for the following molecule? CCCNc1ncc2c(-c3ccc(CN4CCN(CCOCCCOCCCc5ccc6c(c5)n(C)c(=O)n6[C@H]5CCC(=O)NC5=O)CC4)cc3)cn([C@H]3CC[C@H](O)CC3)c2n1 [I-71]
> 50%

What value of Dmax has been reported for the following molecule? CCCCNc1ncc2c(-c3ccc(CN4CCN(CCOCCOCCOCCOCCCc5ccc6c(c5)n(C)c(=O)n6C5CCC(=O)NC5=O)CC4)cc3)nn([C@H]3CC[C@H](O)CC3)c2n1 (some centres unmarked) [I-38]
> 50%

What value of Dmax has been reported for the following molecule? C[C@@H](CC(F)(F)F)Nc1ncc2c(-c3ccc(CN4CCN(CCCOC5CCN(Cc6ccc7c(c6)n(C)c(=O)n7C6CCC(=O)NC6=O)CC5)CC4)cc3)cn([C@H]3CC[C@H](O)CC3)c2n1 (some centres unmarked) [I-197]
> 50%

What value of Dmax has been reported for the following molecule? Cn1c(=O)n(C2CCC(=O)NC2=O)c2ccc(CCCN3CCC(N4CCN(Cc5ccc(-c6cn([C@H]7CC[C@H](O)CC7)c7nc(NCCC(F)(F)F)ncc67)cc5)CC4)C3)cc21 (some centres unmarked) [I-122]
> 50%

What value of Dmax has been reported for the following molecule? Cc1cc(CNCc2ccc(C(=O)N3CCC(C4CCN(Cc5ccc(-c6cn([C@H]7CC[C@H](O)CC7)c7nc(NCCC(F)(F)F)ncc67)cc5)CC4)CC3)cc2)ccc1-c1ccc2nn(CC3CC3)cc2c1 [I-180, hydrochloride]
< 20%

What value of Dmax has been reported for the following molecule? Cn1c(=O)n([C@H]2CCC(=O)NC2=O)c2ccc(COC3CCN(C4CCN(Cc5ccc(-c6cn([C@H]7CC[C@H](O)CC7)c7nc(NCCC(F)(F)F)ncc67)cc5)CC4)CC3)cc21 [I-157]
> 50%

What value of Dmax has been reported for the following molecule? Cn1c(=O)n([C@H]2CCC(=O)NC2=O)c2ccc(CCCN3CC(CCN4CCN(Cc5ccc(-c6cn([C@H]7CC[C@H](O)CC7)c7nc(NCCC(F)(F)F)ncc67)cc5)CC4)C3)cc21 [I-112]
< 20%

What value of Dmax has been reported for the following molecule? CCC[C@H](C)Nc1ncc2c(n1)n([C@H]1CC[C@H](O)CC1)cc2[C@H]1CC[C@H](CN2CCN(CCCO[C@H]3CCN(Cc4ccc5c(c4)n(C)c(=O)n5C4CCC(=O)NC4=O)C3)CC2)CC1 (some centres unmarked) [I-211]
> 50%

What value of Dmax has been reported for the following molecule? Cc1ncsc1-c1ccc(CNC(=O)[C@@H]2C[C@@H](O)CN2C(=O)[C@@H](NC(=O)C2(F)CC2)C(C)(C)C)c(OCCOCCN2CCN(Cc3ccc(-c4cn([C@H]5CC[C@H](O)CC5)c5nc(NCCC(F)(F)F)ncc45)cc3)CC2)c1 [I-174]
20 to 50%

What value of Dmax has been reported for the following molecule? CCCCNc1ncc2c(-c3ccc(CNCCOCCOCCCc4ccc5c(c4)n(C)c(=O)n5[C@H]4CCC(=O)NC4=O)cc3)cn([C@H]3CC[C@H](O)CC3)c2n1 [I-45]
> 50%

What value of Dmax has been reported for the following molecule? O=C1CC[C@H](n2c3cccc(CCCOCCOCCN4CCN(Cc5ccc(-c6cn([C@H]7CC[C@H](O)CC7)c7nc(NCCC(F)(F)F)ncc67)cc5)CC4)c3c3cccnc32)C(=O)N1 [I-134]
> 50%

What value of Dmax has been reported for the following molecule? CCCCNc1ncc2c(-c3ccc(CN4CCN(CCCc5ccc6c(c5)n(C)c(=O)n6[C@H]5CCC(=O)NC5=O)CC4)cc3)cn([C@H]3CC[C@H](O)CC3)c2n1 [I-44]
< 20%

What value of Dmax has been reported for the following molecule? Cn1c(=O)n([C@H]2CCC(=O)NC2=O)c2ccc(CCCOCCCN3CCN(Cc4ccc(-c5cn([C@H]6CC[C@H](O)CC6)c6nc(NCCC(F)(F)F)ncc56)cc4)CC3)cc21 [I-73, formic acid]
> 50%

What value of Dmax has been reported for the following molecule? Cn1c(=O)n([C@H]2CCC(=O)NC2=O)c2cccc(CN3CCC(CC4CCN(Cc5ccc(-c6cn([C@H]7CC[C@H](O)CC7)c7nc(NCCC(F)(F)F)ncc67)cc5)CC4)CC3)c21 [I-159]
> 50%

What value of Dmax has been reported for the following molecule? Cn1c(=O)n([C@H]2CCC(=O)NC2=O)c2ccc(CCOC3CN(C4CCN(Cc5ccc(-c6cn([C@H]7CC[C@H](O)CC7)c7nc(NCCC(F)(F)F)ncc67)cc5)CC4)C3)cc21 [I-144]
> 50%
